- test-details: Encapsulation efficiency of RNA replicons (Quant-iT RiboGreen)
- Assay type: physicochemical
- assay-conditions: LNP 40% cationic lipid, 10% DSPC, 48% cholesterol, 2% PEG-DMG; RNA replicon
- Protocol: Briefly, lipids were dissolved in ethanol (2m1), a RNA replicon was dissolved in buffer (2 ml, 100 mM sodium citrate, pH 6) and these were mixed with 2 ml of buffer followed by 1 hour of equilibration. The mixture was then dialized overnight against 1×PBS. […] The percentage of encapsulated RNA and RNA concentration were determined by Quant-iT RiboGreen RNA reagent kit (Invitrogen), following manufacturer's instructions. […] The fluorescence (Ex 485 nm, Em 528 nm) was read on a microplate reader. […]
Classify: Satisfied when Encapsulation efficiency (RNA %) is strictly less than 80%; Not satisfied when Encapsulation efficiency (RNA %) is not.

Asked: Below 80% on Encapsulation efficiency (RNA %)? Entry `CCCCCCCCCC(=O)OCCCCCCCCOc1ccc(OCCCCCCCCOC(=O)CCCCCCCCC)c(COC(=O)CCCN(C)C)c1`
Given back: Not satisfied

Asked: Below 80% on Encapsulation efficiency (RNA %)? Entry `CCCCCCCCCC(=O)OCCCCCCCCOc1ccc(OCCCCCCCCOC(=O)CCCCCCCCC)c(COC(=O)C2CCN(C)CC2)c1`
Given back: Satisfied

Asked: Below 80% on Encapsulation efficiency (RNA %)? Entry `CCCCC/C=C\C/C=C\CCCCCCCCOc1ccc(OCCCCCCCC/C=C\C/C=C\CCCCC)c(COC(=O)OCCCN(C)C)c1`
Given back: Not satisfied

Asked: Below 80% on Encapsulation efficiency (RNA %)? Entry `CCCCCCCCCC(=O)OCCCCCCCCOc1ccc(OCCCCCCCCOC(=O)CCCCCCCCC)c(COC(=O)C2CCN(C(C)C)CC2)c1`
Given back: Satisfied

Asked: Below 80% on Encapsulation efficiency (RNA %)? Entry `CCCCC/C=C\C/C=C\CCCCCCCCOc1cc(COC(=O)OCCCCN(C)C)c(OCCCCCCCC/C=C\C/C=C\CCCCC)cc1C`
Given back: Not satisfied

Asked: Below 80% on Encapsulation efficiency (RNA %)? Entry `CCCCC/C=C\C/C=C\CCCCCCCCOc1ccc(OCCCCCCCC/C=C\C/C=C\CCCCC)c(COC(=O)CCCN(C)C)c1`
Given back: Not satisfied

Asked: Below 80% on Encapsulation efficiency (RNA %)? Entry `CCCCCCCCCC(=O)OCCCCCCCCOc1ccc(OCCCCCCCCOC(=O)CCCCCCCCC)c(COC(=O)OCCCN(C)C)c1`
Given back: Not satisfied

Asked: Below 80% on Encapsulation efficiency (RNA %)? Entry `CCCCC/C=C\C/C=C\CCCCCCCCOc1ccc(OCCCCCCCC/C=C\C/C=C\CCCCC)c(COC(=O)CCN(C)C)c1`
Given back: Satisfied

Asked: Below 80% on Encapsulation efficiency (RNA %)? Entry `CCCCCCCCCC(=O)OCCCCCCCCOc1ccc(OCCCCCCCCOC(=O)CCCCCCCCC)c(COC(=O)OCCCN(CC)CC)c1`
Given back: Not satisfied

Asked: Below 80% on Encapsulation efficiency (RNA %)? Entry `CCCCC/C=C\C/C=C\CCCCCCCCOc1cc(COC(=O)CCCN(C)C)c(OCCCCCCCC/C=C\C/C=C\CCCCC)cc1C`
Given back: Not satisfied
